# system: E-selectin (Homo sapiens)
# method-notes: IC50-standard competitive binding assay (radiolabeled standard peptide on immobilized E-selectin)
# Design: truncated form comprising the complete extracellular domain (amino acids 1 through 554); made in house; a baculovirus soluble form is also mentioned as an option
# test-parameters: inhibits 50% of binding of radiolabeled standard […] to E-selectin
Square brackets hold non-standard residues; d marks the D form. Peptide text beside a SMILES is read from it. Nle = CCCC[C@H](N)C(=O)O
Item-by-item account of pIC50
# reply with the number alone; pIC50 is -log10 of concentration in mol/L

Solved entries (count: 4):
CCCC[C@H](NC(=O)[C@H](CC(C)C)NC(=O)[C@H](CC(=O)O)NC(=O)[C@H](Cc1c[nH]c2ccccc12)NC(=O)[C@H](CC(C)C)NC(=O)[C@H](CCC(N)=O)NC(=O)[C@H](CC(=O)O)NC(=O)[C@H](Cc1c[nH]c2ccccc12)NC(=O)[C@@H](NC(=O)[C@@H](NC(=O)[C@@H](N)CC(=O)O)[C@@H](C)CC)[C@@H](C)O)C(=O)N[C@@H](CCCCN)C(=O)O (H-DITWDQLWDL[Nle]K-OH) | 7.64
CCCC[C@H](NC(=O)[C@H](CCCC)NC(=O)[C@H](CC(N)=O)NC(=O)[C@H](Cc1c[nH]c2ccccc12)NC(=O)[C@H](CC(C)C)NC(=O)[C@H](CCC(N)=O)NC(=O)[C@H](C)NC(=O)[C@H](Cc1c[nH]c2ccccc12)NC(=O)[C@@H](NC(=O)[C@@H](NC(=O)[C@@H](N)CC(=O)O)[C@@H](C)CC)[C@@H](C)O)C(=O)N[C@@H](CC(N)=O)C(=O)O (H-DITWAQLWN[Nle][Nle]N-OH) | 6.37
CC[C@H](C)[C@H](NC(=O)[C@@H](N)CC(=O)O)C(=O)N[C@H](C(=O)N[C@@H](Cc1c[nH]c2ccccc12)C(=O)N[C@@H](CC(=O)O)C(=O)N[C@@H](CCC(N)=O)C(=O)N[C@@H](CC(C)C)C(=O)N[C@@H](Cc1c[nH]c2ccccc12)C(=O)N[C@@H](CC(=O)O)C(=O)N[C@H](CC(C)C)C(=O)N[C@@H](CCSC)C(=O)N[C@@H](CCCCN)C(=O)O)[C@@H](C)O (H-DITWDQLWD[dL]MK-OH) | 4.48
CCCC[C@H](NC(=O)[C@H](CC(C)C)NC(=O)[C@H](CC(=O)O)NC(=O)[C@H](Cc1c[nH]c2ccccc12)NC(=O)[C@H](CC(C)C)NC(=O)[C@H](CCC(N)=O)NC(=O)[C@H](CC(=O)O)NC(=O)[C@H](Cc1c[nH]c2ccccc12)NC(=O)[C@@H](NC(=O)[C@@H](NC(=O)[C@H](CC(=O)O)NC(=O)CNC(=O)[C@@H](N)CC(=O)O)[C@@H](C)CC)[C@@H](C)O)C(=O)N[C@@H](CCCCN)C(=O)O (H-DGDITWDQLWDL[Nle]K-OH) | 7.38

Attention now shifts to the item below.
Could you share which pIC50 value was measured for CC[C@@H](C)[C@@H](NC(=O)[C@@H](N)CC(=O)O)C(=O)N[C@H](C(=O)N[C@@H](Cc1c[nH]c2ccccc12)C(=O)N[C@@H](CC(=O)O)C(=O)N[C@@H](CCC(N)=O)C(=O)N[C@@H](CC(C)C)C(=O)N[C@@H](Cc1c[nH]c2ccccc12)C(=O)N[C@@H](CC(=O)O)C(=O)N[C@@H](CC(C)C)C(=O)N[C@@H](CCSC)C(=O)N[C@@H](CCCCN)C(=O)O)[C@@H](C)O (H-D[dI]TWDQLWDLMK-OH) ? 7.57

* * *

Item-by-item account of pIC50
# system: E-selectin (Homo sapiens, UniProt P16581)
# method-notes: IC50-standard competitive binding assay (radiolabeled standard peptide on immobilized E-selectin)
# Parameters: truncated form comprising the complete extracellular domain (amino acids 1 through 554); made in house; a baculovirus soluble form is also mentioned as an option
# test-parameters: inhibits 50% of binding of radiolabeled standard to E-selectin
Ends that are not written are not given here.
# reply with the number alone; pIC50 is -log10 of concentration in mol/L

TWDQLWDLMK | 4.92

Attention now shifts to the item below.
Could you share which pIC50 value was measured for ITWDQLWDLMK ? 7.96

* * *

# system: E-selectin (Homo sapiens)
# Sequence (P16581 22-554): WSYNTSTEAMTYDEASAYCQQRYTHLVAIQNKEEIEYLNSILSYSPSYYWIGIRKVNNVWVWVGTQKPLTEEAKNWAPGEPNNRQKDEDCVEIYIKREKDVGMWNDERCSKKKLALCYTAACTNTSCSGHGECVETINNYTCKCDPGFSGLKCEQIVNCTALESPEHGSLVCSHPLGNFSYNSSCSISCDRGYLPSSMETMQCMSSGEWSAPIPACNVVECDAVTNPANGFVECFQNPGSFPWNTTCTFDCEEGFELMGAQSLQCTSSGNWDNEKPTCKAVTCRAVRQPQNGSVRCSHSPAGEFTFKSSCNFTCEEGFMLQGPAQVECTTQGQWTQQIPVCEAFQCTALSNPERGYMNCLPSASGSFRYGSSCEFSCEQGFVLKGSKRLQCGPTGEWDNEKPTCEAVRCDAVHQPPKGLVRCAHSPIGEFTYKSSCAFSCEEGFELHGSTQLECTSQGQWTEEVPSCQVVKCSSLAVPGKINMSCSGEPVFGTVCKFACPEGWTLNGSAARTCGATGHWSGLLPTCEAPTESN
# method-notes: IC50-standard competitive binding assay (radiolabeled standard peptide on immobilized E-selectin)
# Parameters: truncated form comprising the complete extracellular domain (amino acids 1 through 554); made in house; a baculovirus soluble form is also mentioned as an option
# test-parameters: inhibits 50% of binding of radiolabeled standard […] to E-selectin
Ends that are not written are not given here.
endpoint: IC50 (nM)
Numeric only. Scale: nM

Solved entries (count: 2):
DGDITWDQLWDLMK | 4
DITWDELWKIMN | 7

Could you share which IC50 value was measured for DITWDQLWDLMK ? 3

Could you share which IC50 value was measured for DYTWFELWDMMQ ? 6

Could you share which IC50 value was measured for AEKWDQLWHVMNPAESQ ? 65

* * *

Item-by-item account of pIC50
# system: E-selectin (Homo sapiens, UniProt P16581)
# method-notes: IC50-standard competitive binding assay (radiolabeled standard peptide on immobilized E-selectin)
# Parameters: truncated form comprising the complete extracellular domain (amino acids 1 through 554); made in house; a baculovirus soluble form is also mentioned as an option
# test-parameters: inhibits 50% of binding of radiolabeled standard […] to E-selectin
Square brackets hold non-standard residues; d marks the D form. Peptide text beside a SMILES is read from it. Nle = CCCC[C@H](N)C(=O)O
# reply with the number alone; pIC50 is -log10 of concentration in mol/L

Solved entries (count: 4):
CC[C@H](C)[C@H](NC(=O)[C@@H](N)CC(=O)O)C(=O)N[C@@H](C(=O)N[C@@H](Cc1c[nH]c2ccccc12)C(=O)N[C@@H](CC(=O)O)C(=O)N[C@@H](CCC(N)=O)C(=O)N[C@@H](CC(C)C)C(=O)N[C@@H](Cc1c[nH]c2ccccc12)C(=O)N[C@@H](CC(=O)O)C(=O)N[C@@H](CC(C)C)C(=O)N[C@@H](CCSC)C(=O)N[C@@H](CCCCN)C(=O)O)[C@H](C)O (H-DI[dT]WDQLWDLMK-OH) | 5.57
CC[C@H](C)[C@H](NC(=O)[C@H](N)CC(=O)O)C(=O)N[C@H](C(=O)N[C@@H](Cc1c[nH]c2ccccc12)C(=O)N[C@@H](CC(=O)O)C(=O)N[C@@H](CCC(N)=O)C(=O)N[C@@H](CC(C)C)C(=O)N[C@@H](Cc1c[nH]c2ccccc12)C(=O)N[C@@H](CC(=O)O)C(=O)N[C@@H](CC(C)C)C(=O)N[C@@H](CCSC)C(=O)N[C@@H](CCCCN)C(=O)O)[C@@H](C)O (H-[dD]ITWDQLWDLMK-OH) | 7.60
CC[C@H](C)[C@H](NC(=O)[C@@H](N)CC(=O)O)C(=O)N[C@H](C(=O)N[C@@H](Cc1c[nH]c2ccccc12)C(=O)N[C@@H](CC(=O)O)C(=O)N[C@@H](CCC(N)=O)C(=O)N[C@@H](CC(C)C)C(=O)N[C@@H](Cc1c[nH]c2ccccc12)C(=O)N[C@@H](CC(=O)O)C(=O)N[C@@H](CC(C)C)C(=O)N[C@@H](CCSC)C(=O)N[C@H](CCCCN)C(=O)O)[C@@H](C)O (H-DITWDQLWDLM[dK]-OH) | 6.00
CC[C@H](C)[C@H](NC(=O)[C@@H](N)CC(=O)O)C(=O)N[C@H](C(=O)N[C@@H](Cc1c[nH]c2ccccc12)C(=O)N[C@H](CC(=O)O)C(=O)N[C@@H](CCC(N)=O)C(=O)N[C@@H](CC(C)C)C(=O)N[C@@H](Cc1c[nH]c2ccccc12)C(=O)N[C@@H](CC(=O)O)C(=O)N[C@@H](CC(C)C)C(=O)N[C@@H](CCSC)C(=O)N[C@@H](CCCCN)C(=O)O)[C@@H](C)O (H-DITW[dD]QLWDLMK-OH) | 7.47

Attention now shifts to the item below.
So what pIC50 did CCCC[C@H](NC(=O)[C@H](CC(C)C)NC(=O)[C@H](CC(=O)O)NC(=O)[C@H](Cc1c[nH]c2ccccc12)NC(=O)[C@H](CC(C)C)NC(=O)[C@H](CCC(N)=O)NC(=O)[C@H](CC(=O)O)NC(=O)[C@H](Cc1c[nH]c2ccccc12)NC(=O)[C@@H](NC(=O)[C@@H](NC(=O)[C@@H](N)CCC(N)=O)[C@@H](C)CC)[C@@H](C)O)C(=O)N[C@@H](CCCCN)C(=O)O (H-QITWDQLWDL[Nle]K-OH) get with E-selectin (Homo sapiens, UniProt P16581)? 7.19
